Data origin: patent US20150118179A1

Hi there, I'd appreciate the recorded Bacteria reduction % for every entry that follows.
# Tested on: P. aeruginosa 73104
# Test: Biocidal activity in bacterial suspension (Example 18)
# Assay type: cell-based, Pseudomonas aeruginosa
# Experimental conditions: Table 4; contact 5 min; 15 ppm [Cl+]; inoculum 2.26-2.98 × 10^5 CFU/mL
Please reply with the bare figure in % and do not write the unit itself.

// returns reported Bacteria reduction % for input `CCCCCCCCCCCC[N+](C)(C)CCn1cc(C[N+](C)(C)CCCN2C(=O)NC(C)(C)C2=O)nn1` 98.4

// returns reported Bacteria reduction % for input `CC1(C)C(=O)N(CCC[N+](C)(C)C)C(=O)N1Cl` 26.6

// returns reported Bacteria reduction % for input `CC1(C)C(=O)N(CCC[N+](C)(C)CCCN2C(=O)N(Cl)C(C)(C)C2=O)C(=O)N1Cl.[Cl-]` 24.8

// returns reported Bacteria reduction % for input `CC1(C)C(=O)N(CCC[N+](C)(C)CC[N+](C)(C)C)C(=O)N1Cl.[Cl-].[Cl-]` 44.7

// returns reported Bacteria reduction % for input `CCCCCCCCCCCC[N+](C)(C)CCn1cc(C[N+](C)(C)CCCN2C(=O)N(Cl)C(C)(C)C2=O)nn1` 99.97

----------
# Tested on: P. aeruginosa (73104)
# Test: Antibacterial assessment in PBS suspension (Example 19)
# Type: cell-based, Pseudomonas aeruginosa
# Experimental conditions: Table 10, contact 30 min, [Cl+] 15 ppm, inoculum 10^5 cfu/ml
Hi there, I'd appreciate the recorded Bacteria Reduction log10 for every entry that follows.
Please reply with the bare figure in log10 and do not write the unit itself.

// returns reported Bacteria Reduction log10 for input CCCCCC[N+](C)(C)CCCN1C(=O)N(Cl)C(C)(C)C1=O.[Cl-] [Compound 6] 1.52

// returns reported Bacteria Reduction log10 for input CCCCCCCCCCCC[N+](C)(C)CCCN1C(=O)N(Cl)C(C)(C)C1=O.[Cl-] [Compound 8] 5.80

// returns reported Bacteria Reduction log10 for input CCCCCCCCCCCC[N+](C)(C)CCCN1C(=O)NC(C)(C)C1=O [Compound 7] 5.80

// returns reported Bacteria Reduction log10 for input CC1(C)C(=O)N(CC[N+](C)(C)C)C(=O)N1Cl.[Cl-] [Compound 10] 5.27

----------
# Test system: methicillin resistant Staphylococcus aureus (MRSA 40065)
# Type: cell-based
# Experimental conditions: Table 10, contact 1 min, [Cl+] 15 ppm, inoculum 10^6 cfu/ml
Hi there, I'd appreciate the recorded Bacteria reduction % for every entry that follows.
Please reply with the bare figure in % and do not write the unit itself.

// returns reported Bacteria reduction % for input `CCCCCCCCCCCC[N+](C)(C)CCCN1C(=O)N(Cl)C(C)(C)C1=O.[Cl-]` 26.1

// returns reported Bacteria reduction % for input `CC1(C)C(=O)N(CC[N+](C)(C)C)C(=O)N1Cl.[Cl-]` 81.7

// returns reported Bacteria reduction % for input `CCCCCCCCCCCC[N+](C)(C)CCCN1C(=O)NC(C)(C)C1=O` 0

// returns reported Bacteria reduction % for input `CCCCCC[N+](C)(C)CCCN1C(=O)N(Cl)C(C)(C)C1=O.[Cl-]` 78.3

----------
Hi there, I'd appreciate the recorded Bacteria reduction % for every entry that follows.
# Test system: P. aeruginosa (73104)
# Test: Antibacterial assessment in PBS suspension (Example 19)
# Assay type: cell-based, Pseudomonas aeruginosa
# Experimental conditions: Table 10, contact 20 min, [Cl+] 15 ppm, inoculum 10^5 cfu/ml
Please reply with the bare figure in % and do not write the unit itself.

Fill in the recorded Bacteria reduction % for this molecule, with P. aeruginosa (73104) as test system: `CCCCCC[N+](C)(C)CCCN1C(=O)N(Cl)C(C)(C)C1=O.[Cl-]` 68.6

Fill in the recorded Bacteria reduction % for this molecule, with P. aeruginosa (73104) as test system: `CCCCCCCCCCCC[N+](C)(C)CCCN1C(=O)NC(C)(C)C1=O` 100

Fill in the recorded Bacteria reduction % for this molecule, with P. aeruginosa (73104) as test system: `CC1(C)C(=O)N(CC[N+](C)(C)C)C(=O)N1Cl.[Cl-]` 100

Fill in the recorded Bacteria reduction % for this molecule, with P. aeruginosa (73104) as test system: `CCCCCCCCCCCC[N+](C)(C)CCCN1C(=O)N(Cl)C(C)(C)C1=O.[Cl-]` 100
